B1: C1orf137 (parent)
chain: RQHHHQSSFPGSLPQETNLTLKVC

- Variants of: B1
- measurement.notes: protein stability index of a GFP-peptide fusion (GPS, HEK-293T) (PSI 1-6); higher = more stable;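 also: lentivirally expressed fusions sorted by FACS into six bins by GFP to DsRed ratio, PSI derived from sequencing read proportions per bin multiplied by bin number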
- experimental.setup: c terminus: a fixed tail appended
Tick Met if protein stability index is 3 or greater. Tick Not met if protein stability index is less than 3.

> print(dat)
     var    group
 1   H3G      Met
 2  C24S      Met
 3  V23D      Met
 4   Q6T  Not met
 5  L21H      Met
 6  T17V  Not met
 7  Q15R  Not met
 8  T17D      Met
 9  V23R      Met
10  C24L      Met
11   Q2T      Met
12   H4N      Met
13  K22C  Not met
14  L13K      Met
15  L19N      Met
16  Q15I  Not met
17   Q2M  Not met
18  V23P      Met
19  K22H  Not met
20  S12V      Met
21  N18P      Met
22  T17G      Met
23  G11Y  Not met
24  L13C  Not met
25  C24Y  Not met
26  Q15C  Not met
27  Q15N  Not met
28  G11R  Not met
29  T20P      Met
30   Q2N  Not met
31  G11P  Not met
32   H5E      Met
33  P14R  Not met
34  T17M  Not met
35   S7N      Met
36   S7F  Not met
37   H4T      Met
38   R1T      Met
39  N18W  Not met
40  E16K  Not met
41   S8H  Not met
42   H3N  Not met
43   F9G      Met
44   H5S  Not met
45  V23S      Met
46   F9K      Met
47  N18V  Not met
48  S12P  Not met
49  G11A  Not met
50   F9P      Met
51   H3A  Not met
52  L19C      Met
53  T20K  Not met
54  N18Q      Met
55   H4R  Not met
56   H5R      Met
57  L19S      Met
58  G11L  Not met
59  T17F  Not met
60  K22R  Not met
61  P10C  Not met
62   S7V  Not met
63  G11M      Met
64  G11F  Not met
65   R1Q      Met
66  T20C  Not met
67  P10T      Met
68   R1M  Not met
69  P14K      Met
70   R1G      Met
71  S12I  Not met
72   S7C  Not met
73   Q6L  Not met
74  C24V  Not met
75  S12F  Not met
76   Q6G      Met
77  P10H  Not met
78   Q6H      Met
79   S7K      Met
80   F9V      Met
81  P14D      Met
82  G11E      Met
